- Test system: Plutella xylostella
- experimentNotes: Insecticidal activity against Plutella xylostella (diamondback moth) assessed as insect mortality at 0.78 ppm
- Format: functional
readout: mortality at 0.78 ppm (%)

[[record]]
testsmiles = "CCc1nn(C)c(C(=O)NCc2ccc(COc3ccc(C)cc3)cc2)c1Cl"
readout = "mortality at 0.78 ppm"
quantitativereadout = 0

[[record]]
testsmiles = "CCc1nn(C)c(C(=O)NCc2ccc(Oc3ccc(C)cc3)cc2)c1Cl"
readout = "mortality at 0.78 ppm"
quantitativereadout = 0

[[record]]
testsmiles = "CCc1nn(C)c(C(=O)NCc2ccc(Cc3ccc(C)cc3)cc2)c1Cl"
readout = "mortality at 0.78 ppm"
quantitativereadout = 0

[[record]]
testsmiles = "CCc1nn(C)c(C(=O)NCc2ccc(Sc3ccc(C)cc3)cc2)c1Cl"
readout = "mortality at 0.78 ppm"
quantitativereadout = 0

[[record]]
testsmiles = "CCc1nn(C)c(C(=O)NCc2ccc(C(=O)c3ccc(C)cc3)cc2)c1Cl"
readout = "mortality at 0.78 ppm"
quantitativereadout = 0

